# Tested Target: DOT1L(1-416) (Homo sapiens)
# Sequence (Q8TEK3 1-416): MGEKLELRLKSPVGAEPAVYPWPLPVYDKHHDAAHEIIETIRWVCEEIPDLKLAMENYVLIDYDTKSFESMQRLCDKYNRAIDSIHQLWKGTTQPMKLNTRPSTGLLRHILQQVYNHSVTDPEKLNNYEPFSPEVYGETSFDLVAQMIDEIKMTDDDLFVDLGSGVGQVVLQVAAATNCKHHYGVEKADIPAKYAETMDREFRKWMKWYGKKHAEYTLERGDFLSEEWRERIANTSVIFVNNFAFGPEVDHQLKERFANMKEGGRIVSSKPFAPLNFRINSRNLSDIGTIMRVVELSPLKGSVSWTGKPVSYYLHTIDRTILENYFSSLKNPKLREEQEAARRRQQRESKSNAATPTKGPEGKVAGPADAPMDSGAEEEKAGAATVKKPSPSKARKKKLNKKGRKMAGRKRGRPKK
# Assay Info: Determination of IC50: DOT1L(1-416) methyltransferase assay, 3H-SAM, oligonucleosome substrate, Flashplate
# Type: biochemical
# Condition Notes: class symbols; read-out: DOT1L IC50
# Experimental: Determination of IC50. Test compounds were serially diluted 3 fold in DMSO for 10 points and 1 μl was plated in a 384 well microtiter plate. […] For detection, substrate from 50 μl of reaction was immobilized on a 384 well Streptavidin coated Flashplate (Perkin Elmer) (also coated with 0.2% polyethyleneimine) and read on a Top Count scintillation counter (Perkin Elmer).
Quantity Measured: IC50

Molecule: CCN(C[C@H]1O[C@@H](n2cnc3c(N)ncnc32)[C@H](O)[C@@H]1O)[C@H]1C[C@@H](CCc2nc3cc(C(C)(C)C)ccc3[nH]2)C1
Result: < 100 nM

Molecule: CC(C)N(C[C@@H]1C[C@@H](O)[C@H](n2ccc3c(N)ncnc32)C1)[C@H]1C[C@H](CCc2nc3cc(Cl)c(C(F)(F)F)cc3[nH]2)C1
Result: 1000 to 10000 nM

Molecule: CC(C)(C)c1ccc2[nH]c(CC[C@H]3C[C@H](N(C[C@H]4O[C@@H](n5cnc6c(N)ncnc65)[C@H](O)[C@@H]4O)CC(F)(F)F)C3)nc2c1
Result: 100 to 1000 nM

Molecule: CC(C)(C)c1ccc2[nH]c(CC[C@H]3C[C@H](N(C[C@H]4O[C@@H](n5ccc6c(N)ncnc65)[C@H](O)[C@@H]4O)CC(F)(F)F)C3)nc2c1
Result: 100 to 1000 nM

Molecule: COCC(C)(C)c1ccc2[nH]c(CCC3CC(N(C)C[C@H]4O[C@@H](n5cnc6c(N)ncnc65)[C@H](O)[C@@H]4O)C3)nc2c1 (some centres unmarked)
Result: < 100 nM

Molecule: CN(C[C@H]1C[C@@H](n2ccc3c(N)ncnc32)[C@H](O)[C@@H]1O)C1CC(CCc2nc3cc(C(F)(F)F)c(Cl)cc3[nH]2)C1 (some centres unmarked)
Result: < 100 nM

Molecule: CC(C)N(C[C@H]1O[C@@H](n2cnc3c(N)ncnc32)[C@H](O)[C@@H]1O)[C@H]1C[C@@H](CCc2nc3cc(Cl)c(C(F)(F)F)cc3[nH]2)C1
Result: < 100 nM

Molecule: CC(C)N(C[C@H]1O[C@@H](n2cnc3c(N)ncnc32)[C@H](O)[C@@H]1O)[C@H]1C[C@H](CCc2nc3cc(C4CCC4)ccc3[nH]2)C1
Result: < 100 nM

Molecule: CC(C)N(C[C@@H]1C[C@@H](O)[C@H](n2ccc3c(N)ncnc32)C1)[C@H]1C[C@@H](CCc2nc3cc(C(C)(C)C)ccc3[nH]2)C1
Result: 100 to 1000 nM

Molecule: CC(C)N(C[C@H]1O[C@@H](n2cnc3c(N)ncnc32)[C@H](O)[C@@H]1O)[C@H]1C[C@@H](CCc2nc3cc(CC(F)(F)F)ccc3[nH]2)C1
Result: < 100 nM

Molecule: CC(C)N(C[C@H]1C[C@@H](n2ccc3c(N)ncnc32)[C@H](O)[C@@H]1O)C1CC(CCc2nc3cc(C(C)(C)C)ccc3[nH]2)C1 (some centres unmarked)
Result: < 100 nM

----------
# Tested Target: DOT1L(1-416) (Homo sapiens)
# Assay Info: Determination of IC50: DOT1L(1-416) methyltransferase assay, 3H-SAM, oligonucleosome substrate, Flashplate
# Assay type: biochemical
# Condition Notes: class symbols; read-out: DOT1L IC50
pIC50: −log10 of the molar value.
Quantity Measured: pIC50

Compound: CN(C[C@H]1C[C@@H](n2ccc3c(N)ncnc32)[C@H](O)[C@@H]1O)[C@H]1C[C@@H](CCc2nc3cc(C4(C)CCC4)ccc3[nH]2)C1 [Compound 36]
Quantity Measured: pIC50
Result: > 7.00

Compound: CC(C)N(CC1CC(Cc2nc3cc(C(F)(F)F)c(Cl)cc3[nH]2)C1)C[C@H]1C[C@@H](n2ccc3c(N)ncnc32)[C@H](O)[C@@H]1O (some centres unmarked) [Compound 21]
Quantity Measured: pIC50
Result: 5.00 to 6.00

Compound: CC(C)CN(C[C@H]1C[C@@H](n2ccc3c(N)ncnc32)[C@H](O)[C@@H]1O)[C@H]1C[C@@H](CCc2nc3cc(C(C)(C)C)ccc3[nH]2)C1 [Compound 53]
Quantity Measured: pIC50
Result: > 7.00

Compound: CN(C[C@H]1C[C@@H](n2ccc3c(N)ncnc32)[C@H](O)[C@@H]1O)[C@H]1C[C@@H](CCc2nc3cc(C(F)(F)F)ccc3[nH]2)C1 [Compound 10]
Quantity Measured: pIC50
Result: > 7.00

Compound: CN(C[C@H]1C[C@@H](n2ccc3c(N)ncnc32)[C@H](O)[C@@H]1O)[C@H]1C[C@@H](CCc2nc3cc(Cl)c(Cl)cc3[nH]2)C1 [Compound 52]
Quantity Measured: pIC50
Result: > 7.00

Compound: CC(C)N(C[C@H]1O[C@@H](n2cnc3c(N)ncnc32)[C@H](O)[C@@H]1O)[C@H]1C[C@H](CCc2nc3cc(C4CC4)ccc3[nH]2)C1 [Compound 119]
Quantity Measured: pIC50
Result: > 7.00

Compound: CN(CC1CC(Cc2nc3cc(C(F)(F)F)ccc3[nH]2)C1)C[C@H]1C[C@@H](n2ccc3c(N)ncnc32)[C@H](O)[C@@H]1O (some centres unmarked) [Compound 18]
Quantity Measured: pIC50
Result: 6.00 to 7.00

Compound: CCN(C[C@H]1O[C@@H](n2ccc3c(N)ncnc32)[C@H](O)[C@@H]1O)[C@H]1C[C@@H](CCc2nc3cc(C(C)(C)C)ccc3[nH]2)C1 [Compound 89]
Quantity Measured: pIC50
Result: > 7.00

Compound: CC(C)N(C[C@H]1O[C@@H](n2cnc3c(N)ncnc32)[C@H](O)[C@@H]1O)[C@H]1C[C@H](CCc2nc3cc(C4(C)CCC4)ccc3[nH]2)C1 [Compound 31]
Quantity Measured: pIC50
Result: > 7.00

Compound: CC(C)N(C[C@H]1O[C@@H](n2ccc3c(N)ncnc32)[C@H](O)[C@@H]1O)[C@H]1C[C@H](CCc2nc3cc(C(C)(C)C)ccc3[nH]2)C1 [Compound 75]
Quantity Measured: pIC50
Result: > 7.00

Compound: CC(C)(C)c1ccc2[nH]c(CC[C@H]3C[C@@H](N(C[C@H]4C[C@@H](n5ccc6c(N)ncnc65)[C@H](O)[C@@H]4O)C4CCC4)C3)nc2c1 [Compound 46]
Quantity Measured: pIC50
Result: > 7.00

----------
# Tested Target: DOT1L(1-416) (Homo sapiens)
# Assay Info: Determination of IC50: DOT1L(1-416) methyltransferase assay, 3H-SAM, oligonucleosome substrate, Flashplate
# Format: biochemical
# Condition Notes: class symbols; read-out: DOT1L IC50
Listed compounds paired with reported IC50

Compound: CC(C)N(C[C@H]1O[C@@H](n2cnc3c(N)ncnc32)[C@H](O)[C@@H]1O)[C@H]1C[C@H](CCc2nc3cc(C4(C#N)CC4)ccc3[nH]2)C1 [Compound 136]
IC50: < 100 nM
//
Compound: CN(C[C@H]1O[C@@H](n2cnc3c(N)ncnc32)[C@H](O)[C@@H]1O)[C@H]1C[C@@H](CCc2nc3cc(C4CCC4)ccc3[nH]2)C1 [Compound 131]
IC50: < 100 nM
//
Compound: CN(C[C@H]1C[C@@H](n2ccc3c(N)ncnc32)[C@H](O)[C@@H]1O)C1CC(CCc2nc3cc(C(F)(F)F)ccc3[nH]2)C1 (stereo partly shown) [Compound 13]
IC50: < 100 nM
//
Compound: CN(C[C@H]1O[C@@H](n2ccc3c(N)ncnc32)[C@H](O)[C@@H]1O)[C@H]1C[C@H](CCc2nc3cc(OC(F)(F)F)ccc3[nH]2)C1 [Compound 95]
IC50: < 100 nM
//
Compound: CN(C[C@H]1O[C@@H](n2cnc3c(N)ncnc32)[C@H](O)[C@@H]1O)[C@H]1C[C@H](CCc2nc3cc(C4CCC4)ccc3[nH]2)C1 [Compound 132]
IC50: < 100 nM
//
Compound: CN(C[C@H]1O[C@@H](n2cnc3c(N)ncnc32)[C@H](O)[C@@H]1O)[C@H]1C[C@H](CCc2nc3cc(OC(F)(F)F)ccc3[nH]2)C1 [Compound 97]
IC50: < 100 nM
//
Compound: CC(C)(C)c1ccc2[nH]c(CCC3CC(N(CC4CC4)C[C@H]4C[C@@H](n5ccc6c(N)ncnc65)[C@H](O)[C@@H]4O)C3)nc2c1 (stereo partly shown) [Compound 44]
IC50: < 100 nM
//
Compound: COCC(C)(C)c1ccc2[nH]c(CCC3CC(N(C[C@H]4O[C@@H](n5cnc6c(N)ncnc65)[C@H](O)[C@@H]4O)C(C)C)C3)nc2c1 (stereo partly shown) [Compound 118]
IC50: < 100 nM
//
Compound: CCN(C[C@H]1C[C@@H](n2ccc3c(N)ncnc32)[C@H](O)[C@@H]1O)C1CC(CCc2nc3cc(C(C)(C)C)ccc3[nH]2)C1 (stereo partly shown) [Compound 25]
IC50: < 100 nM
//
Compound: CC(C)N(C[C@H]1O[C@@H](n2cnc3c(N)ncnc32)[C@H](O)[C@@H]1O)[C@H]1C[C@H](CCc2nc3cc(CC(F)(F)F)ccc3[nH]2)C1 [Compound 123]
IC50: < 100 nM
//
Compound: CN(C[C@H]1C[C@@H](n2ccc3c(N)ncnc32)[C@H](O)[C@@H]1O)[C@H]1C[C@H](CCc2nc3cc(C(F)(F)F)c(Cl)cc3[nH]2)C1 [Compound 12]
IC50: < 100 nM
//
Compound: CN(C[C@H]1C[C@@H](n2ccc3c(N)ncnc32)[C@H](O)[C@@H]1O)[C@H]1C[C@H](CCc2nc3cc(OC(F)(F)F)ccc3[nH]2)C1 [Compound 57]
IC50: < 100 nM
//
Compound: CC(C)N(C[C@H]1O[C@@H](n2cnc3c(N)ncnc32)[C@H](O)[C@@H]1O)[C@H]1C[C@@H](CCc2nc3cc(C4CCC4)ccc3[nH]2)C1 [Compound 115]
IC50: < 100 nM
//
Compound: CN(C[C@H]1O[C@@H](n2cnc3c(N)ncnc32)[C@H](O)[C@@H]1O)[C@H]1C[C@H](CCc2nc3cc(C(C)(C)C)ccc3[nH]2)C1 [Compound 72]
IC50: < 100 nM
//
Compound: CC(C)N(C[C@H]1O[C@@H](n2cnc3c(N)ncnc32)[C@H](O)[C@@H]1O)[C@H]1C[C@@H](CCc2nc3cc(C(C)(C)C#N)ccc3[nH]2)C1 [Compound 128]
IC50: < 100 nM
//
Compound: CN(C[C@H]1O[C@@H](n2cnc3c(N)ncnc32)[C@H](O)[C@@H]1O)C1CC(CCc2nc3cc(C4COC4)ccc3[nH]2)C1 (stereo partly shown) [Compound 64]
IC50: 100 to 1000 nM
//
Compound: CC(C)(C)c1ccc2[nH]c(CC[C@H]3C[C@H](N(CC4CCC4)C[C@H]4C[C@@H](n5ccc6c(N)ncnc65)[C@H](O)[C@@H]4O)C3)nc2c1 [Compound 59]
IC50: < 100 nM
//
Compound: CC(C)N(C[C@H]1O[C@@H](n2cnc3c(N)ncnc32)[C@H](O)[C@@H]1O)C1CC(CCc2nc3cc(C(C)(C)C#N)ccc3[nH]2)C1 (stereo partly shown) [Compound 120]
IC50: < 100 nM
//
Compound: CN(C[C@@H]1C[C@@H](O)[C@H](n2ccc3c(N)ncnc32)C1)[C@H]1C[C@@H](CCc2nc3cc(Cl)c(C(F)(F)F)cc3[nH]2)C1 [Compound 81]
IC50: 100 to 1000 nM
//
Compound: CC(C)N(C[C@@H]1C[C@@H](O)[C@H](n2ccc3c(N)ncnc32)C1)[C@H]1C[C@@H](CCc2nc3cc(Cl)c(C(F)(F)F)cc3[nH]2)C1 [Compound 105]
IC50: 1000 to 10000 nM
//
Compound: CN(C[C@@H]1C[C@@H](O)[C@H](n2ccc3c(N)ncnc32)C1)[C@H]1C[C@H](CCc2nc3cc(Cl)c(C(F)(F)F)cc3[nH]2)C1 [Compound 85]
IC50: 10000 to 50000 nM
//
Compound: CN(C[C@H]1O[C@@H](n2cnc3c(N)ncnc32)[C@H](O)[C@@H]1O)[C@H]1C[C@@H](CCc2nc3cc(C4CC4)ccc3[nH]2)C1 [Compound 133]
IC50: < 100 nM
//
Compound: CN(C[C@H]1O[C@@H](n2ccc3c(N)ncnc32)[C@H](O)[C@@H]1O)C1CC(Cc2nc3cc(C(C)(C)C)ccc3[nH]2)C1 (stereo partly shown) [Compound 6]
IC50: < 100 nM
//
Compound: CCN(C[C@H]1C[C@@H](n2ccc3c(N)ncnc32)[C@H](O)[C@@H]1O)[C@H]1C[C@H](CCc2nc3cc(C(C)(C)C)ccc3[nH]2)C1 [Compound 49]
IC50: < 100 nM
//
Compound: CC(C)CN(C[C@H]1C[C@@H](n2ccc3c(N)ncnc32)[C@H](O)[C@@H]1O)C1CC(CCc2nc3cc(C(C)(C)C)ccc3[nH]2)C1 (stereo partly shown) [Compound 45]
IC50: < 100 nM
